Recorded Activity values for a group of molecules are listed next.
Tested On: Vitamin D3 receptor (Mus musculus) (UniProt P48281)
Sequence (P48281 whole entry): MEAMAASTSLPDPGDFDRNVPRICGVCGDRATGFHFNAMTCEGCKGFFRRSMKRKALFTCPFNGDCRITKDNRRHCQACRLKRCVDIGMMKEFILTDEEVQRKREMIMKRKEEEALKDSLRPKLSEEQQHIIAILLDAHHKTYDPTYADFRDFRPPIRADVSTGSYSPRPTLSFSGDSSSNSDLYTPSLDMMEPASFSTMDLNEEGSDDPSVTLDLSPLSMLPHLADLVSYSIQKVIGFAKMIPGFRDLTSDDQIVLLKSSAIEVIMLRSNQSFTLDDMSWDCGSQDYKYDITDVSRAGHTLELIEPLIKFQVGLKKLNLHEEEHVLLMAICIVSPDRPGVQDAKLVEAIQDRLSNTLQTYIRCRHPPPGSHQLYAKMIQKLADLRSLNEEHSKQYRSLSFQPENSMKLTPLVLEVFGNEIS
Assay Explanation: Activation of VDR in mouse ASZ001 cells assessed as change in Cyp24A1 mRNA expression at 5 uM after 48 hrs by q-PCR analysis relative to control
Format: cell-based
Give a bare numeral; the unit % is implied.

Here are 3 molecules together with their reported answers.
mol=C[C@H](CCCC(C)(C)O)[C@H]1CC[C@H]2[C@H](CNc3cccc(O)c3)CCC[C@]12C measurement_type=Activity observed_value=8.4
mol=COC(C)(C)CCC[C@@H](C)[C@H]1CC[C@H]2[C@H](CNc3cccc(O)c3)CCC[C@]12C measurement_type=Activity observed_value=2400
mol=COC(C)(C)CCC[C@@H](C)[C@H]1CC[C@H]2[C@@H](OC(=O)c3cccc(O)c3)CCC[C@]12C measurement_type=Activity observed_value=14

Q. Using Vitamin D3 receptor (Mus musculus) (UniProt P48281) as the test system, report measured Activity of CC(C)CCC[C@@H](C)[C@H]1CC[C@H]2[C@@H](NCc3ccc(O)cc3)CCC[C@]12C .
A. 1.1

Q. Using Vitamin D3 receptor (Mus musculus) (UniProt P48281) as the test system, report measured Activity of C[C@H](CCCC(C)(C)O)[C@H]1CC[C@H]2[C@H](CNc3ccc(O)cc3)CCC[C@]12C .
A. 140

Q. Using Vitamin D3 receptor (Mus musculus) (UniProt P48281) as the test system, report measured Activity of COC(C)(C)CCC[C@@H](C)[C@H]1CC[C@H]2[C@@H](Nc3cccc(O)c3)CCC[C@]12C .
A. 11000
